- Test system: PC-3 (prostate cancer) cells
- assay.procedure: Cell proliferation assay (MTS), PC-3
- Type: cell-based
- condition.context: 72 h; 3 days treatment, MTS; read-out: IC50 (μM) Prostate cancer PC-3
reported.endpoint: IC50 (µM)

INSERT INTO results (molecule, reported_endpoint, quantitative_readout) VALUES
  ('C#C[C@@]1(O)CC[C@H]2[C@@H]3CCc4cc(OC)c(C(=O)N5CCN(C(=O)[C@@H]6CCCN6C(=O)c6ccc7ccccc7n6)CC5)cc4[C@H]3CC[C@@]21C [Compound 25]', 'IC50', 1.7),
  ('C#C[C@]1(O)CC[C@H]2[C@@H]3CCc4cc(OC)c(N5CCN(C(=O)[C@@H]6CCCN6C(=O)c6ccc7ccccc7n6)CC5)cc4[C@H]3CC[C@@]21C [RM-581]', 'IC50', 1.6),
  ('C#C[C@@]1(O)CC[C@H]2[C@@H]3CCc4cc(OS(N)(=O)=O)c(N5CCN(C(=O)[C@@H]6CCCN6C(=O)c6ccc7ccccc7n6)CC5)cc4[C@H]3CC[C@@]21C [Compound 4]', 'IC50', 1.6),
  ('C#C[C@@]1(O)CC[C@H]2[C@@H]3CC[C@H]4CC(=O)C(N5CCN(C(=O)[C@@H]6CCCN6C(=O)c6ccc7ccccc7n6)CC5)=C[C@]4(C)[C@H]3CC[C@@]21C [1 (enone)]', 'IC50', 0.002),
  ('C#C[C@]1(O)CC[C@H]2[C@@H]3CCc4cc(OC)c(CN5CCN(C(=O)[C@@H]6CCCN6C(=O)c6ccc7ccccc7n6)CC5)cc4[C@H]3CC[C@@]21C [Compound 29]', 'IC50', 1.7),
  ('C#C[C@@]1(O)CC[C@H]2[C@@H]3CCc4cc(OC(C)=O)c(N5CCN(C(=O)[C@@H]6CCCN6C(=O)c6ccc7ccccc7n6)CC5)cc4[C@H]3CC[C@@]21C [Compound 3]', 'IC50', 1.4);
